Origin of values: paper PMC12416549

Biological target: T1, TNFR1 (Homo sapiens, UniProt P19438)
T1 chain: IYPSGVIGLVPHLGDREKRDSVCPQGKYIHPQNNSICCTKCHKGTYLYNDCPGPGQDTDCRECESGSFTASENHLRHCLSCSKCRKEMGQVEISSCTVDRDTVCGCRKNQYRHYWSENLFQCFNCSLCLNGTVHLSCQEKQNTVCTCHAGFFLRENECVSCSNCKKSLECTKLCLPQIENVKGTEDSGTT
Test: yeast display SC50
test-readout: apparent Kd (screen) (nM)

Examples with their reported apparent Kd (screen) follow.
binder: R61T (designed binder) MTLQELLREEALRRAEAEAFRYALELLAEKFPEQKEYLLDLAEEIESQIRSLSGVDVEDVTKFLDKEWAWVKELLAEHPAELAEVEAARAARLAELRAEVEAKVAA
apparent Kd (screen), nM: 0.593
--
binder: E44F (designed binder) MTLQELLREEALRRAEAEAFRYALELLAEKFPEQKEYLLDLAEFIESQIRSLSGVDVEDVRKFLDKEWAWVKELLAEHPAELAEVEAARAARLAELRAEVEAKVAA
apparent Kd (screen), nM: 16.7

[1] S47W (designed binder) MTLQELLREEALRRAEAEAFRYALELLAEKFPEQKEYLLDLAEEIEWQIRSLSGVDVEDVRKFLDKEWAWVKELLAEHPAELAEVEAARAARLAELRAEVEAKVAA
[2] L3N (designed binder) MTNQELLREEALRRAEAEAFRYALELLAEKFPEQKEYLLDLAEEIESQIRSLSGVDVEDVRKFLDKEWAWVKELLAEHPAELAEVEAARAARLAELRAEVEAKVAA
[3] D56K (designed binder) MTLQELLREEALRRAEAEAFRYALELLAEKFPEQKEYLLDLAEEIESQIRSLSGVKVEDVRKFLDKEWAWVKELLAEHPAELAEVEAARAARLAELRAEVEAKVAA
[4] A69W (designed binder) MTLQELLREEALRRAEAEAFRYALELLAEKFPEQKEYLLDLAEEIESQIRSLSGVDVEDVRKFLDKEWWWVKELLAEHPAELAEVEAARAARLAELRAEVEAKVAA
# rank_down: sort by apparent Kd (screen), max first Answer with the labels in sequence, matching the requested order. 2, 3, 4, 1
(2: 24.4 nM, 3: 2.25 nM, 4: 0.539 nM, 1: 0.277 nM)

[P] E46W (designed binder) MTLQELLREEALRRAEAEAFRYALELLAEKFPEQKEYLLDLAEEIWSQIRSLSGVDVEDVRKFLDKEWAWVKELLAEHPAELAEVEAARAARLAELRAEVEAKVAA
[Q] V57G (designed binder) MTLQELLREEALRRAEAEAFRYALELLAEKFPEQKEYLLDLAEEIESQIRSLSGVDGEDVRKFLDKEWAWVKELLAEHPAELAEVEAARAARLAELRAEVEAKVAA
Choose between P and Q : whose measured apparent Kd (screen) value is numerically larger? Which one? Tell me its label. Q
